Biological target: wildtype human LRRK2 (Homo sapiens)
Construct: human LRRK2 protein fragment encompassing amino acids 1326 to 2527; GST; made in house
Sequence (Q5S007 1326-2527): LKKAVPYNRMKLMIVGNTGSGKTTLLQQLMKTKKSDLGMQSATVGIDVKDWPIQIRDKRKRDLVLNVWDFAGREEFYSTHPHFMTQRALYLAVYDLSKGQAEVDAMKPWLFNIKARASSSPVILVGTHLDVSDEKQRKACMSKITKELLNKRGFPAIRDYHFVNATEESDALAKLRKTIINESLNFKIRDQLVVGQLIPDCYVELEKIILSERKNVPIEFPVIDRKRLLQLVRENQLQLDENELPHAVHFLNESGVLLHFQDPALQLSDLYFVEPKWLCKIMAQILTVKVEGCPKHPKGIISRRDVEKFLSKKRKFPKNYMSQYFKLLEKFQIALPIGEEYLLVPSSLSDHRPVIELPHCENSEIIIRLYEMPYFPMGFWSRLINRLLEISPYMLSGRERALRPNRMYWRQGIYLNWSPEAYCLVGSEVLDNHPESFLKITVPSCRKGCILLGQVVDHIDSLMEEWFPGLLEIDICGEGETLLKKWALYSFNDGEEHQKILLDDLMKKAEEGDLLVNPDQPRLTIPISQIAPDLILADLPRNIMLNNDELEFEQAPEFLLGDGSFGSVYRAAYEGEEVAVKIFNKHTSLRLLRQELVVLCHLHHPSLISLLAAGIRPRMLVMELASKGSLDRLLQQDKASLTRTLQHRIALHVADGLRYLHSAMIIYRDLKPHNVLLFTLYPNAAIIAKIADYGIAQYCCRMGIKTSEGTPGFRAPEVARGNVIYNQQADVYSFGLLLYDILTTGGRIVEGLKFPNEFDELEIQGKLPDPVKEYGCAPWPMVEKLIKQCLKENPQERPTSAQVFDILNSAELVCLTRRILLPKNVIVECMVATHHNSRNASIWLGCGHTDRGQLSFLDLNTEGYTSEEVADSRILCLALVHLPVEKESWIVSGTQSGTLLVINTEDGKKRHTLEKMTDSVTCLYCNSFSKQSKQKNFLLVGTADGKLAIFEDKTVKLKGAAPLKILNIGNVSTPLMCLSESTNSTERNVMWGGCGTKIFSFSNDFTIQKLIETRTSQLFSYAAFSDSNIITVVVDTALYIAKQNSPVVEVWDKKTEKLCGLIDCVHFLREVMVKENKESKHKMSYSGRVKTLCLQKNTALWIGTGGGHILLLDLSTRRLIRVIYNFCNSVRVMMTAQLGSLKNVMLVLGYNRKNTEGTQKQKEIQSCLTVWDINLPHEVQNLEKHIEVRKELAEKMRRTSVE
Test: Adapta assay, inhibition of wildtype human LRRK2 kinase fragment with LRRKtide
Assay type: biochemical
pIC50: −log10 of the molar value.
assay.endpoint: pIC50

compound | recorded.number
COC(=O)[C@@]1(O)C[C@H]2O[C@]1(C)n1c3ccccc3c3c4c(c5c6ccccc6n2c5c31)C(=O)NC4 [Compound K252a, K252a, reference compound] | 6.66
